Assayed System: T1, Recombinant human insulin receptor (B form) ECD (R&D Systems) (human, UniProt P06213 28-956, limits assumed)
T1 construct: extracellular domain; also called INSR-ECD; h-INSR
Measurement Notes: SPR (Biacore 2000), INSR-ECD immobilised, purified Fab injected, 1:1 fit
Observation Type: Kd (nM)

1) RHF.15.05896.056 (Fab, V domains shown, Untagged Fab) VH: EVQLVETGGGVVQPGRSLRLSCAASGFKFSSYAMHWVRQAPGKGLEWVAVISYGGSNKYYADSVKGRFTISRDNSKNTLYLQMNSLRAEDTAVYYCARHEWGFGFDEWGQGTTVTVSS VL: DVVMTQSPLSLPVTLGQPASISCRSSQSLVYGDGNTYLNWFQQRPGQSPRRLIYKVSNRDSGVPDRFSGSGSGTEFTLKISRVEAEDVGVYFCMQGTYWPGTFGGGTKLEIKR ... 1.4
2) RHF.15.05896.015 (Fab, V domains shown, Untagged Fab) VH: EVQLVETGGGVVQPGRSLRLSCAASGFKFSSYAMHWVRQAPGKGLEWVAVISYSGRNKYYADSVKGRFTISRDNSKNTLYLQMNSLRAEDTAVYYCARHEWGFGQDYWGQGTTVTVSS VL: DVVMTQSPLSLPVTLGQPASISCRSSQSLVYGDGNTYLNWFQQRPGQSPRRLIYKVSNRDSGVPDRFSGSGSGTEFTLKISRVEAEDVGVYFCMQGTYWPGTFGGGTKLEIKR ... 3
